- PROTOCOL: Pharmacokinetic study in rats after single oral administration of ZGI, DGE, PA or S. officinalis extract (plasma, UHPLC-MS/MS)
- Assay type: in vivo, Sprague-Dawley rats
- CONDITIONS_USED: male, Sprague-Dawley; analyte ZGI in rat plasma; single oral dose of the row's substance (extract 0.55 g/kg, ZGI 0.03 g/kg); n = 6
- Description: The UHPLC–MS/MS method was successfully used in the pharmacokinetic studies of the three analytes after single dose administration of ZGI, DGE, PA, and S. officinalis extract in rats (0.55 g/kg, equivalent to 0.03, 0.013, and 0.007 g/kg of ZGI, DGE, and PA, respectively). […] The maximum concentration (Cmax) and the time to attain it (Tmax) were observed directly from the measured data. […]
MEASURED_PARAMETER: Tmax (h)

>>> obs_value("C[C@@H]1CC[C@]2(C(=O)O[C@@H]3O[C@H](CO)[C@@H](O)[C@H](O)[C@H]3O)CC[C@]3(C)C(=CC[C@@H]4[C@@]5(C)CC[C@H](O[C@@H]6OC[C@H](O)[C@H](O)[C@H]6O)C(C)(C)[C@@H]5CC[C@]43C)[C@@H]2[C@]1(C)O [ZGI, Ziyuglycoside I]")
1.4
